Cited source for all entries: patent US20250223358A1

- experimental.target: T1, cynomolgus CD3 (cynomolgus (Macaca fascicularis), UniProt Q95LI5 22-198; Q95LI8 22-171; Q95LI7 23-181)
- T1 construct: whole, on cells; composition of the 'mix' not defined; also called cynoCD3
- T1 sequence (Q95LI5 22-198, chain 1 of 3): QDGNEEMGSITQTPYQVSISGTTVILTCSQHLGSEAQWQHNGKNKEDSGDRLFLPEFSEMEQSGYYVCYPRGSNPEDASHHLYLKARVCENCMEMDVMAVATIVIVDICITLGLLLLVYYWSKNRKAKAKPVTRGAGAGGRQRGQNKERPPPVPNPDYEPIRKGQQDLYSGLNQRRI
- T1 sequence (Q95LI8 22-171, chain 2 of 3): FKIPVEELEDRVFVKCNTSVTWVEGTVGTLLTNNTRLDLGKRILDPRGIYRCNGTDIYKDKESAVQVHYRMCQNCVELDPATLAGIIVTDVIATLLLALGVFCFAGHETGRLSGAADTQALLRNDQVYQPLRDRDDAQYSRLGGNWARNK
- T1 sequence (Q95LI7 23-181, chain 3 of 3): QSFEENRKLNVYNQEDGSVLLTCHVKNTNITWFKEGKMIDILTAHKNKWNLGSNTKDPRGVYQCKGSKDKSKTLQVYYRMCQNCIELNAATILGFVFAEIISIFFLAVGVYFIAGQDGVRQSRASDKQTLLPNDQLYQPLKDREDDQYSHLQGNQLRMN
- assay.method.text: FACS on 293T-cynoCD3mix cells
Field: Top signal. Provide a value for each of the binders that follow.

Task item: Which Top signal is listed for hu147E2-L2H3 (antibody, V domains shown, humanized 147E11E2; also called hu14E2-L2H3) VH: EVQLVQSGAEVKKPGSSVKVSCKASGYTFTSYWMHWVRQAPGQGLEWMGNINPSNGATNYNEKFKSRVTLTVDKSTSTAYMELSSLRSEDTAVYYCARDRSSQYYFDYWGQGTTVTVSS VL: DIVMTQSPDSLAVSLGERATINCKSSQSLLNSRSRKNYLAWYQQKPGQSPKLLIYWASTRESGVPDRFSGSGSGTDFTLTISSLQAEDVAVYYCTQSYTLRTFGGGTKVEIK ?
Reply: 21000

Task item: Which Top signal is listed for hu147E2-L2H2 (antibody, V domains shown, humanized 147E11E2; also called hu14E2-L2H2) VH: EVQLVQSGAEVKKPGSSVKVSCKASGYTFTSYWMHWVRQAPGQGLEWMGNINPSNGATNYNEKFKSRVTITADKSTSTAYMELSSLRSEDTAVYYCARDRSSQYYFDYWGQGTTVTVSS VL: DIVMTQSPDSLAVSLGERATINCKSSQSLLNSRSRKNYLAWYQQKPGQSPKLLIYWASTRESGVPDRFSGSGSGTDFTLTISSLQAEDVAVYYCTQSYTLRTFGGGTKVEIK ?
Reply: 20500

Task item: Which Top signal is listed for hu147E2-L3H3 (antibody, V domains shown, humanized 147E11E2; also called hu14E2-L3H3) VH: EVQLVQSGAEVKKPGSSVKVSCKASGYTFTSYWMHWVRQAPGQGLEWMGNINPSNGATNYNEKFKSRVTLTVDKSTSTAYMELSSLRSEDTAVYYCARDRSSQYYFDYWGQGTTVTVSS VL: DIQMTQSPSSLSASVGDRVTITCKSSQSLLNSRSRKNYLAWYQQKPGKAPKLLIYWASTRESGVPSRFSGSGSGTDFTLTISSLQPEDFATYYCTQSYTLRTFGGGTKVEIK ?
Reply: 19000

Task item: Which Top signal is listed for ch147E11E2 (antibody, V domains shown) VH: QVQLQQPGTELVKPGTSVKLSCKASGYTFTSYWMHWVKQRPGQGLEWIGNINPSNGATNYNEKFKSKATLTVDKSSSTAYMQLSSLTSEDSAVYYCARDRSSQYYFDYWGQGTTLTVSS VL: DIVMSQSPSSLAVSAGEKVTMSCKSSQSLLNSRSRKNYLAWYQQKPGQSPKLLIYWASTRESGVPDRFTGSGSGTDFTLTISSVQAEDLAVYYCTQSYTLRTFGGGTKLEIK ?
Reply: 17800

Task item: Which Top signal is listed for hu147E2-L1H3a (antibody, V domains shown, humanized 147E11E2 with N55Q in HCDR2 (deamidation site removed); also called hu14E2-L1H3a) VH: EVQLVQSGAEVKKPGSSVKVSCKASGYTFTSYWMHWVRQAPGQGLEWMGNINPSQGATNYNEKFKSRVTLTVDKSTSTAYMELSSLRSEDTAVYYCARDRSSQYYFDYWGQGTTVTVSS VL: DIVMTQSPDSLAVSLGERATINCKSSQSLLNSRSRKNYLAWYQQKPGQPPKLLIYWASTRESGVPDRFSGSGSGTDFTLTISSLQAEDVAVYYCTQSYTLRTFGGGTKVEIK ?
Reply: 20700
